Reported ED50 values follow for various molecules
Species: Mus musculus
Test: Toxicity in albino mouse assessed as induction of catalepsy measured at 30 mins intervals until 240 mins
Format: organism-based
Details: in vivo
Numeric only. Scale: mg/kg

The cases that follow already have their ED50 on record.
compound_structure=O=C(CN1CCN(c2cccc(Cl)c2)CC1)N(c1ccccc1)c1ccccc1 readout_value=48.4
compound_structure=O=C(CN1CCN(c2ccc(Cl)c(Cl)c2)CC1)N(c1ccccc1)c1ccccc1 readout_value=45
compound_structure=O=C(CN1CCN(c2ccccc2)CC1)N(c1ccccc1)c1ccccc1 readout_value=50

// switching to the query molecule
Record summary for O=C(CN1CCN(c2cccc(C(F)(F)F)c2)CC1)N(c1ccccc1)c1ccccc1 : reported ED50 = 48

---

Tested on: Mus musculus
Test: Antipsychotic activity in ip dosed Swiss albino mouse assessed as inhibition of 5-hydoxytryptophan-induced head twitches behavior administered 30 mins prior to 5-hydoxytryptophan challenge measured at 10 mins intervals for 30 mins after 20 mins post dose
Assay type: functional
Reported ED50 values follow for various compounds

The cases that follow already have their ED50 on record.
compound_structure=Cc1cccc(N2CCN(CC(=O)N(c3ccccc3)c3ccccc3)CC2)c1C readout_value="> 30 mg/kg"
compound_structure=O=C(CN1CCN(c2ccc([N+](=O)[O-])cc2)CC1)N(c1ccccc1)c1ccccc1 readout_value="> 40 mg/kg"

// switching to the query compound
// compound O=C(CN1CCN(c2ccc(Cl)c(Cl)c2)CC1)N(c1ccccc1)c1ccccc1 , assay Mus musculus, ED50 value: > 20 mg/kg

---

Organism: Mus musculus
Experiment: Toxicity in albino mouse assessed as induction of catalepsy measured at 30 mins intervals until 240 mins
Assay type: organism-based
Details: in vivo
Reported ED50 values follow for various compounds

Record summary for O=C(CN1CCN(c2ccc(F)cc2)CC1)N(c1ccccc1)c1ccccc1 : reported ED50 = > 40 mg/kg

Record summary for Cc1cccc(N2CCN(CC(=O)N(c3ccccc3)c3ccccc3)CC2)c1C : reported ED50 = > 40 mg/kg

Record summary for Cc1ccc(N2CCN(CC(=O)N(c3ccccc3)c3ccccc3)CC2)cc1 : reported ED50 = > 40 mg/kg

Data credit: ChEMBL document CHEMBL1914434
